Molecular target: T1, recombinant human MASP1 active protease (amino acids 297-699, C-terminal His Tag) (human, UniProt P48740 297-699)
T1 sequence: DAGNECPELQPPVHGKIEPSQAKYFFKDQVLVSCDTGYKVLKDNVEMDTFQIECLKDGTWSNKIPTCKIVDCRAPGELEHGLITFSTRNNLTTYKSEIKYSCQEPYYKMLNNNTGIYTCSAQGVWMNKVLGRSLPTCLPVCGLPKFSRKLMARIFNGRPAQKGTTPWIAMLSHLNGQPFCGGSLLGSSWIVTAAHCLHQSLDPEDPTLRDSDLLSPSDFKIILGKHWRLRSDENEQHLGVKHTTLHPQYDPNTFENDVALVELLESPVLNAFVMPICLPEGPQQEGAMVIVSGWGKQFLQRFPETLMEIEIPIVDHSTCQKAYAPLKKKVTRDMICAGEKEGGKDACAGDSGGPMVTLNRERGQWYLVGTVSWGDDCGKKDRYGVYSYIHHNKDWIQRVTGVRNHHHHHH
Experiment: cell-based or functional assay
Bridge positions count the residues as written; N and C are the ends. Square brackets hold non-standard residues; d marks the D form. Primed or numbered codes have the meaning given here. Ends that are not written are not given here. * marks the point of attachment. Tranexamic″ = tranexamic acid, NC[C@H]1CC[C@@H](C(=O)*)CC1; Hyp = O=C(O)[C@@H]1C[C@@H](O)CN1; tBuAla = CC(C)(C)C[C@H](N)C(=O)O; Gly(cBu) = N[C@H](C(=O)O)C1CCC1; Pen = CC(C)(S)[C@H](N)C(=O)O; PEG3 = NCCOCCOCCOCCC(=O)O
Sorting guide: entries reporting human MASP1 IC50 beneath 30 nM go in the Satisfied pile, the rest go in the Not satisfied pile.

Consider the following illustrative entries.
XXAICSRS[tBuAla]PPI[Pen]IPD-OH (disulfide 5-13; not fully specified (N-terminus); printed as (D-(+)Biotin)-(Ahx)-AIC + SRS-((tBu)A)-PPI-(Pen) + IPD-OH) [Example 352: (D-(+)Biotin)-(Ahx)-AIC+SRS-((tBu)A)-PPI-(Pen)+IPD-OH]; Satisfied
{Tranexamic″}-ICSRS[tBuAla]PPI[Pen]IP-{PEG3-NH2} (disulfide 2-10; SMILES CC[C@H](C)[C@@H]1NC(=O)[C@@H]2CCCN2C(=O)[C@@H]2CCCN2C(=O)[C@H](CC(C)(C)C)NC(=O)[C@H](CO)NC(=O)[C@H](CCCNC(=N)N)NC(=O)[C@H](CO)NC(=O)[C@@H](NC(=O)[C@@H](NC(=O)[C@H]2CC[C@@H](CN)CC2)[C@@H](C)CC)CSSC(C)(C)[C@@H](C(=O)N[C@H](C(=O)N2CCC[C@H]2C(=O)NCCOCCOCCOCCC(N)=O)[C@@H](C)CC)NC1=O) [Example 421: (Tranexamic)-IC+SRS-((tBu)A)-PPI-(Pen)+IP-(PEG2(13 atoms))-NH2]; Satisfied
AICSRSLPP[Gly(cBu)]CIPD-NH2 (disulfide 3-11; N-terminus assumed; SMILES CC[C@H](C)[C@H](NC(=O)[C@H](C)N)C(=O)N[C@H]1CSSC[C@@H](C(=O)N[C@H](C(=O)N2CCC[C@H]2C(=O)N[C@@H](CC(=O)O)C(N)=O)[C@@H](C)CC)NC(=O)[C@H](C2CCC2)NC(=O)[C@@H]2CCCN2C(=O)[C@@H]2CCCN2C(=O)[C@H](CC(C)C)NC(=O)[C@H](CO)NC(=O)[C@H](CCCNC(=N)N)NC(=O)[C@H](CO)NC1=O) [Example 389: AIC+SRSLPP-(Cyclobutylglycine)-C+IPD-NH2]; Not satisfied
AICSRSLPPIC[(2S,3S)‑2‑((Amino)methyl)‑3‑methylpentanoic acid]PD-NH2 (disulfide 3-11) [Example 417: AIC+SRSLPPIC+((2S,3S)-2-((Amino)methyl)-3-methylpentanoic acid)-PD-NH2]; Not satisfied

Next:
Please check: human MASP1 IC50 for GICSRSLP[Hyp]ICIPD-OH (disulfide 3-11; N-terminus assumed; SMILES CC[C@H](C)[C@H](NC(=O)CN)C(=O)N[C@H]1CSSC[C@@H](C(=O)N[C@H](C(=O)N2CCC[C@H]2C(=O)N[C@@H](CC(=O)O)C(=O)O)[C@@H](C)CC)NC(=O)[C@H]([C@@H](C)CC)NC(=O)[C@@H]2C[C@@H](O)CN2C(=O)[C@@H]2CCCN2C(=O)[C@H](CC(C)C)NC(=O)[C@H](CO)NC(=O)[C@H](CCCNC(=N)N)NC(=O)[C@H](CO)NC1=O) [Example 410: GIC+SRSLP-(Hyp)-IC+IPD-OH] , strictly under 30 nM or not?
Not satisfied

Data credit: patent US20210246166A1
